Assay: Extended single-dose toxicity study including safety pharmacology endpoints, i.v. bolus (GLP)
Format: in vivo, beagle dogs
Details: beagle, dog, plasma, iv, 400 ug/kg; Female; 400 μg/kg single i.v. bolus; harmonic mean
Protocol: The following parameters and endpoints were evaluated: mortality, clinical observations, body weights, food consumption, body temperature, local reactions, ophthalmology, clinical pathology parameters (hematology, coagulation, clinical chemistry, and urinalysis), cardiovascular and respiratory safety pharmacology endpoints along with FOB evaluation, organ weights, and macroscopic and microscopic examinations, and TK parameters. […]
Measured Parameter: half-life

CC(C)C[C@@H]1NC(=O)[C@H](Cc2cccc(NC(=O)CCCS(N)(=O)=O)c2)NC(=O)[C@H](CC(=O)O)NC(=O)[C@H]2CCCN2C(=O)[C@H](CCC(=O)O)NC(=O)[C@@H](NC(=O)[C@H](CCC(N)=O)NC(=O)CN2CCN(C(=O)CN3CCN(CC(=O)O)CCN(CC(=O)O)CCN(CC(=O)O)CC3)CC2)CSCc2cccc(c2)CSC[C@@H](C(N)=O)NC(=O)[C@H](CO)NC(=O)[C@H](Cc2c[nH]c3ccccc23)NC(=O)[C@H]([C@@H](C)O)NC1=O [DPI-4452] = 21.8 min

---

Assay: Dose range finding study by intravenous route with toxicokinetics
Assay type: in vivo, beagle dogs
Settings: male, beagle, dog, plasma, iv; Day 1; 0.025 mg/kg i.v.; mean n = 2
Measured Parameter: clearance (mL/min/kg)

CC(C)C[C@@H]1NC(=O)[C@H](Cc2cccc(NC(=O)CCCS(N)(=O)=O)c2)NC(=O)[C@H](CC(=O)O)NC(=O)[C@H]2CCCN2C(=O)[C@H](CCC(=O)O)NC(=O)[C@@H](NC(=O)[C@H](CCC(N)=O)NC(=O)CN2CCN(C(=O)CN3CCN(CC(=O)O)CCN(CC(=O)O)CCN(CC(=O)O)CC3)CC2)CSCc2cccc(c2)CSC[C@@H](C(N)=O)NC(=O)[C@H](CO)NC(=O)[C@H](Cc2c[nH]c3ccccc23)NC(=O)[C@H]([C@@H](C)O)NC1=O = 11.7

---

Experiment: Extended single-dose toxicity study including safety pharmacology endpoints, i.v. bolus (GLP)
Assay type: in vivo, beagle dogs
Details: beagle, dog, plasma, iv, 16 ug/kg; Male; 16 μg/kg single i.v. bolus; mean n = 3
Measured Parameter: clearance (mL/min/kg)

CC(C)C[C@@H]1NC(=O)[C@H](Cc2cccc(NC(=O)CCCS(N)(=O)=O)c2)NC(=O)[C@H](CC(=O)O)NC(=O)[C@H]2CCCN2C(=O)[C@H](CCC(=O)O)NC(=O)[C@@H](NC(=O)[C@H](CCC(N)=O)NC(=O)CN2CCN(C(=O)CN3CCN(CC(=O)O)CCN(CC(=O)O)CCN(CC(=O)O)CC3)CC2)CSCc2cccc(c2)CSC[C@@H](C(N)=O)NC(=O)[C@H](CO)NC(=O)[C@H](Cc2c[nH]c3ccccc23)NC(=O)[C@H]([C@@H](C)O)NC1=O [DPI-4452] = 18.3

---

Test: Extended single-dose toxicity study including safety pharmacology endpoints, i.v. bolus (GLP)
Type: in vivo, beagle dogs
Settings: beagle, dog, plasma, iv, 16 ug/kg; Male; 16 μg/kg single i.v. bolus; mean n = 3; read-out: Vss
Measured Parameter: Vd (L/kg)

CC(C)C[C@@H]1NC(=O)[C@H](Cc2cccc(NC(=O)CCCS(N)(=O)=O)c2)NC(=O)[C@H](CC(=O)O)NC(=O)[C@H]2CCCN2C(=O)[C@H](CCC(=O)O)NC(=O)[C@@H](NC(=O)[C@H](CCC(N)=O)NC(=O)CN2CCN(C(=O)CN3CCN(CC(=O)O)CCN(CC(=O)O)CCN(CC(=O)O)CC3)CC2)CSCc2cccc(c2)CSC[C@@H](C(N)=O)NC(=O)[C@H](CO)NC(=O)[C@H](Cc2c[nH]c3ccccc23)NC(=O)[C@H]([C@@H](C)O)NC1=O = 0.26

Data origin, for the record: patent US20250339569A1
